Reference source for all entries: patent US8420655B2

system: recombinant human FLAP protein (Homo sapiens, UniProt P20292)
test_description: FLAP binding assay, displacement of iodinated (125I) FLAP inhibitor, Scintillation Proximity Assay format
cond: [125I]L-691,831 probe, membrane protein from sf9 cells; read-out: hFLAP binding IC50
// classify: if (IC50 < 3 nM) TRUE else FALSE

# test_smiles, label_value
measured = [
    ("Cc1ncnn1-c1ccc(Cl)cc1-c1nc2cc(-c3cnc(N)nc3)ccc2n1C(C)(C)C", "FALSE"),
    ("CC(C)(C)n1c(-c2ccccc2-c2ncn(CC#N)n2)nc2cc(-c3cnc(N)nc3)ccc21", "FALSE"),
    ("CC(C)(COc1ccc(-n2cncn2)c(-c2nc3cc(-c4cnc(N)nc4)ccc3n2C(C)(C)C)c1)C(=O)O", "FALSE"),
]

State whether 3 nM exceeds IC50 recorded for COc1ccc(-n2ccc(C)n2)c(-c2nc3cc(-c4cnc(N)nc4)ccc3n2C(C)(C)C)c1 . FALSE

// repeat for COC(=O)c1ncn(-c2ccc(C#N)cc2-c2nc3cc(-c4cnc(N)nc4)ccc3n2C(C)(C)C)n1 and report FALSE

Also check CCNC(=O)Oc1ccc(-n2cncn2)c(-c2nc3cc(-c4cnc(N)nc4)ccc3n2C(C)(C)C)c1 TRUE

Next compound: Cc1ncn(-c2ccccc2-c2nc3cc(-c4cnc(N)nc4)ccc3n2C(C)(C)C)n1 TRUE

// repeat for CC(C)(C)n1c(-c2cc(I)ccc2-n2cncn2)nc2cc(-c3cnc(N)nc3)ccc21 and report TRUE

----------
The molecules listed here are annotated with their IC50.
system: recombinant human FLAP protein (Homo sapiens)
Construct: made in house; host or cells: Sf9 insect cells (membrane fraction, 100,000 x g pellet)
test_description: FLAP binding assay, displacement of iodinated (125I) FLAP inhibitor, Scintillation Proximity Assay format
cond: [125I]L-691,831 probe, membrane protein from sf9 cells; read-out: hFLAP binding IC50
Protocol: Compounds are assessed for the ability to bind to FLAP in a binding assay that measures compound-specific displacement of an iodinated (^125I) FLAP inhibitor via a Scintillation Proximity Assay format (adapted from S. Charleson et al., Mol. Pharmacol., 1992, 41, 873-879). Cell pellets produced from sf9 insect cells expressing recombinant human FLAP protein are resuspended in buffer A [15 mM Tris-HCl (pH 7.5), 2 mM MgCl2, 0.3 mM EDTA, 1 mM PMSF]. […]
Lab book: enter the figure in nM, no units written.

Worked examples follow.
# test_smiles, IC50 [nM]
rows = [
    ("COc1ccc(-n2cccn2)c(-c2nc3cc(-c4cnc5c(c4)CCN5)ccc3n2C(C)(C)C)c1", 1.5),
    ("CC(C)(C)n1c(-c2ccccc2-c2ccno2)nc2cc(-c3cnc(N)nc3)ccc21", 2.4),
    ("CCCCC/C(=C\\C(=O)O)c1ccc(-n2cncn2)c(-c2nc3cc(-c4cnc(N)nc4)ccc3n2C(C)(C)C)c1", 6),
]

What does the data say about its IC50? Entry: COC(=O)C(C)(C)Oc1ccc(-c2nc3cc(-c4cnc(N)nc4)ccc3n2C(C)(C)C)c(-n2cncn2)c1 7.2

----------
system: recombinant human FLAP protein (Homo sapiens, UniProt P20292)
test_description: FLAP binding assay, displacement of iodinated (125I) FLAP inhibitor, Scintillation Proximity Assay format
cond: [125I]L-691,831 probe, membrane protein from sf9 cells; read-out: hFLAP binding IC50
readout_name: IC50 (nM)
The answer is to be given in nM; state only the numeric part.

Example results:
# test_smiles, IC50 / nM
data = [
    ("Cc1c(-c2ccc(-n3cncn3)c(-c3nc4cc(-c5cnc(N)nc5)ccc4n3C(C)(C)C)c2)cnn1C", 4),
    ("COCCn1cnc(-c2ccccc2-c2nc3cc(-c4cnc(N)nc4)ccc3n2C(C)(C)C)n1", 3.3),
    ("COc1ccc(-n2cccn2)c(-c2nc3cc(-c4cnc5[nH]ccc5c4)ccc3n2C(C)(C)C)c1", 1.1),
]

Switching to the query record.
Request the reported IC50 associated with CC(C)(C)n1c(-c2cc(C#N)ccc2-n2cncn2)nc2cc(-c3cnc(N)nc3)ccc21 3.1

----------
system: recombinant human FLAP protein (Homo sapiens)
test_description: FLAP binding assay, displacement of iodinated (125I) FLAP inhibitor, Scintillation Proximity Assay format
cond: [125I]L-691,831 probe, membrane protein from sf9 cells; read-out: hFLAP binding IC50
readout_name: IC50 (nM)
Give the number; nM is assumed, so skip it.

# test_smiles, system, IC50 / nM
rows = [
    ("C=Cc1ccc(-n2cncn2)c(-c2nc3cc(-c4cnc(N)nc4)ccc3n2C(C)(C)C)c1", "recombinant human FLAP protein (Homo sapiens)", 1.3),
    ("Cc1ccc(-c2nc(C)no2)c(-c2nc3cc(-c4cnc(N)nc4)ccc3n2C(C)(C)C)c1", "recombinant human FLAP protein (Homo sapiens)", 1.8),
    ("COc1ccc(-n2ncnc2C)c(-c2nc3cc(-c4cnc(N)nc4)ccc3n2C(C)(C)C)c1", "recombinant human FLAP protein (Homo sapiens)", 1.5),
    ("Cn1cc(-c2ccc(-n3cncn3)c(-c3nc4cc(-c5cnc(N)nc5)ccc4n3C(C)(C)C)c2)cn1", "recombinant human FLAP protein (Homo sapiens)", 2.4),
    ("CCN(CC)C(=O)Oc1ccc(-n2cncn2)c(-c2nc3cc(-c4cnc(N)nc4)ccc3n2C(C)(C)C)c1", "recombinant human FLAP protein (Homo sapiens)", 8.8),
]

Look at this molecule and give its reported IC50. COc1ccc(-c2nc3cc(-c4cnc(N)nc4)ccc3n2C(C)(C)C)c(-n2cncn2)c1 2.9

Moving on to the next molecule: CCOC(=O)C(C)(C)COc1ccc(-c2nc3cc(-c4cnc(N)nc4)ccc3n2C(C)(C)C)c(-n2cncn2)c1 2.7

Lookup Cc1ncn(-c2ccc(F)cc2-c2nc3cc(-c4cnc(N)nc4)ccc3n2C(C)(C)C)n1 1.4

What about Cc1ccn(-c2ccccc2-c2nc3cc(-c4cnc(N)nc4)ccc3n2C(C)(C)C)n1 ? 1.1

Can you handle CC(C)(C)n1c(-c2ccccc2-n2cncn2)nc2cc(-c3cnc4c(c3)CCN4)ccc21 next? 2.1

Next up: Cc1ccc(-n2cnc(C)n2)c(-c2nc3cc(-c4cnc(N)nc4)ccc3n2C(C)(C)C)c1 1.7

And COc1ccc(-n2cc(Cl)cn2)c(-c2nc3cc(-c4cnc(N)nc4)ccc3n2C(C)(C)C)c1 ? 1.6

Input CNC(=O)c1ccc(-n2cncn2)c(-c2nc3cc(-c4cnc(N)nc4)ccc3n2C(C)(C)C)c1 20

Same question, CC(C)(C)n1c(-c2ccccc2-n2ccc(C(F)(F)F)n2)nc2cc(-c3cnc(N)nc3)ccc21 this time 4.5

And for Cc1ccnn1-c1ccc(C#N)cc1-c1nc2cc(-c3cnc(N)nc3)ccc2n1C(C)(C)C ? 1.3

----------
system: recombinant human FLAP protein (Homo sapiens, UniProt P20292)
Sequence (P20292 1-161): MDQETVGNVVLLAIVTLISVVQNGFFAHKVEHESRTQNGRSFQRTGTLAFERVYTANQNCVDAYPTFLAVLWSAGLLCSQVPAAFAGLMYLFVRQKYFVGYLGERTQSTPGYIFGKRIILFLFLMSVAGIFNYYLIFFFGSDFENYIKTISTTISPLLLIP
test_description: FLAP binding assay, displacement of iodinated (125I) FLAP inhibitor, Scintillation Proximity Assay format
cond: [125I]L-691,831 probe, membrane protein from sf9 cells; read-out: hFLAP binding IC50
IC50 values for the compounds below.
Write it as a number; the unit nM goes unstated.

# test_smiles, system, IC50, nM
measured = [
    ("CC(C)(C)n1c(-c2cc(Cl)ccc2-n2cncn2)nc2cc(-c3cnc(N)nc3)ccc21", "recombinant human FLAP protein (Homo sapiens, UniProt P20292)", 3),
    ("CC(C)NC(=O)Oc1ccc(-n2cncn2)c(-c2nc3cc(-c4cnc(N)nc4)ccc3n2C(C)(C)C)c1", "recombinant human FLAP protein (Homo sapiens, UniProt P20292)", 1.5),
]

Missing value: IC50, recombinant human FLAP protein (Homo sapiens, UniProt P20292), entry CCOCc1ccc(-n2cncn2)c(-c2nc3cc(-c4cnc(N)nc4)ccc3n2C(C)(C)C)c1 . Fill in? 10

Subsequent entry: CC(C)(C)n1c(-c2cccc(F)c2-n2cncn2)nc2cc(-c3cnc(N)nc3)ccc21 1.7

// repeat for Cc1ncn(-c2ccc(Cl)cc2-c2nc3cc(-c4cnc(N)nc4)ccc3n2C(C)(C)C)n1 and report 1.4

What about CC(C)(C)n1c(-c2ccc(Cl)cc2-n2cncn2)nc2cc(-c3cnc(N)nc3)ccc21 ? 1.7

Repeat for the following compound: Cc1ccn(-c2ccc(C#N)cc2-c2nc3cc(-c4cnc(N)nc4)ccc3n2C(C)(C)C)n1 1.8

----------
Entries annotated with measured IC50
system: recombinant human FLAP protein (Homo sapiens)
test_description: FLAP binding assay, displacement of iodinated (125I) FLAP inhibitor, Scintillation Proximity Assay format
cond: [125I]L-691,831 probe, membrane protein from sf9 cells; read-out: hFLAP binding IC50
Quick note: number first, unit second.

Example cases with answers are listed next.
# test_smiles, IC50
records = [
    ("COc1ccc(-n2cccn2)c(-c2nc3cc(-c4cnc(N)nc4)ccc3n2C(C)(C)C)c1", "5.2 nM"),
    ("COC(=O)c1ccc(-n2cncn2)c(-c2nc3cc(-c4cnc(N)nc4)ccc3n2C(C)(C)C)c1", "2.7 nM"),
]

We now examine a further molecule.
// query IC50 value for entry Cc1nc(-c2ccccc2-c2nc3cc(-c4cnc(N)nc4)ccc3n2C(C)(C)C)n(C)n1 1.8 nM
